- System: 11-beta-hydroxysteroid dehydrogenase 1 (Homo sapiens)
- Assay details: Inhibition of human recombinant 11beta-HSD1 expressed in HEK293 cells assessed as conversion of [1,2-3H]cortisone to cortisol at 1 uM after 10 mins by scintillation counting
- Assay type: cell-based
Readout name: inhibition (%)

CC1(C)[C@@H](O)CC[C@]2(C)[C@H]3C(=O)C=C4[C@@H]5C[C@@](C)(C(=O)O)CC[C@]5(C)CC[C@@]4(C)[C@]3(C)CC[C@@H]12 (stereo in doubt; 23)
49.7

(a) CC1(C)[C@@H](O)CC[C@]2(C)[C@H]3C(=O)C=C4[C@@H]5C[C@@](C)(C(=O)NCC(=O)O)CC[C@]5(C)CC[C@@]4(C)[C@]3(C)CC[C@@H]12
(b) CON=C1CC[C@]2(C)[C@H]3C(=O)C=C4[C@@H]5C[C@@](C)(C(=O)O)CC[C@]5(C)CC[C@@]4(C)[C@]3(C)CC[C@H]2C1(C)C
Q) // pick min by inhibition: a , b Selection: enter the item's label.
A) a
(a: 2.7%, b: 63.2%)

###

- System: 11-beta-hydroxysteroid dehydrogenase 1 (Homo sapiens) (UniProt P28845)
- Sequence (P28845 whole entry, looked up): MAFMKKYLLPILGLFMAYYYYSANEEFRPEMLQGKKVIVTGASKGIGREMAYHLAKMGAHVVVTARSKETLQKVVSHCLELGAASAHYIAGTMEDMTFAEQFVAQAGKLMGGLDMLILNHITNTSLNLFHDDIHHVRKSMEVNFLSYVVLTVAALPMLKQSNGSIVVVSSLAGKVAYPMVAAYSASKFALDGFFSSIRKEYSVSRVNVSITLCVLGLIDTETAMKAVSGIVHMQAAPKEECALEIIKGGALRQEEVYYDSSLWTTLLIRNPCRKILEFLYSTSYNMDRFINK
- Assay details: Inhibition of human recombinant 11beta-HSD1 expressed in HEK293 cells assessed as conversion of [1,2-3H]cortisone to cortisol at 1 uM after 10 mins by scintillation counting
- Format: cell-based
Readout name: inhibition (%)

Observe how each entry below is paired with its result.
CC1(C)[C@@H](O)CC[C@]2(C)[C@H]3C(=O)C=C4[C@@H]5C[C@@](C)(C(=O)O)CC[C@]5(C)CC[C@@]4(C)[C@]3(C)CC[C@@H]12 (stereo in doubt; 1)
91.2
CC1(C)[C@@H](O[C@H]2O[C@H](C(=O)O)[C@@H](O)[C@H](O)[C@H]2O[C@@H]2O[C@H](C(=O)O)[C@@H](O)[C@H](O)[C@H]2O)CC[C@]2(C)[C@H]3C(=O)C=C4[C@@H]5C[C@@](C)(C(=O)O)CC[C@]5(C)CC[C@@]4(C)[C@]3(C)CC[C@@H]12
63.2

(1) CC1(C)[C@@H](OP(=O)(O)O)CC[C@]2(C)[C@H]3C(=O)C=C4[C@@H]5C[C@@](C)(C(=O)O)CC[C@]5(C)CC[C@@]4(C)[C@]3(C)CC[C@@H]12
(2) C#CCNC(=O)[C@@]1(C)CC[C@]2(C)CC[C@]3(C)C(=CC(=O)[C@@H]4[C@@]5(C)CC[C@H](O)C(C)(C)[C@@H]5CC[C@]43C)[C@@H]2C1
(3) CC(=O)O[C@H]1CC[C@]2(C)[C@H]3C(=O)C=C4[C@@H]5C[C@@](C)(C=NO)CC[C@]5(C)CC[C@@]4(C)[C@]3(C)CC[C@H]2C1(C)C
Q) # desc sort on inhibition across 3 compounds Answer format: list of labels, ordered as asked.
A) 1, 3, 2
(1: 86%, 3: 43.3%, 2: 10.1%)

###

- System: 11-beta-hydroxysteroid dehydrogenase 1 (Homo sapiens) (UniProt P28845)
- Assay details: Inhibition of human recombinant 11beta-HSD1 expressed in HEK293 cells assessed as conversion of [1,2-3H]cortisone to cortisol at 1 uM after 10 mins by scintillation counting
- Format: cell-based
Readout name: inhibition (%)

(I) C=CCNC(=O)[C@@]1(C)CC[C@]2(C)CC[C@]3(C)C(=CC(=O)[C@@H]4[C@@]5(C)CC[C@H](O)C(C)(C)[C@@H]5CC[C@]43C)[C@@H]2C1
(II) CN(C)CCNC(=O)[C@@]1(C)CC[C@]2(C)CC[C@]3(C)C(=CC(=O)[C@@H]4[C@@]5(C)CC[C@H](O)C(C)(C)[C@@H]5CC[C@]43C)[C@@H]2C1
Q) Choose between I and II : whose measured inhibition value is numerically larger? Kindly give the label for the entry you pick.
A) II
(II: 36%, I: 6.2%)

(I) CC(=O)O[C@H]1CC[C@]2(C)[C@H]3C(=O)C=C4[C@@H]5C[C@@](C)(C(=O)O)CC[C@]5(C)CC[C@@]4(C)[C@]3(C)CC[C@H]2C1(C)C
(II) CC(=O)O[C@H]1CC[C@]2(C)[C@H]3C(=O)C=C4[C@@H]5C[C@@](C)(C(=O)NN)CC[C@]5(C)CC[C@@]4(C)[C@]3(C)CC[C@H]2C1(C)C
Q) // compare: I vs II , metric inhibition, want the smaller Answer by quoting the chosen item's label.
A) I
(I: 47.1%, II: 90.9%)

###

- System: 11-beta-hydroxysteroid dehydrogenase 1 (Rattus norvegicus, UniProt P16232)
- Sequence (P16232 whole entry): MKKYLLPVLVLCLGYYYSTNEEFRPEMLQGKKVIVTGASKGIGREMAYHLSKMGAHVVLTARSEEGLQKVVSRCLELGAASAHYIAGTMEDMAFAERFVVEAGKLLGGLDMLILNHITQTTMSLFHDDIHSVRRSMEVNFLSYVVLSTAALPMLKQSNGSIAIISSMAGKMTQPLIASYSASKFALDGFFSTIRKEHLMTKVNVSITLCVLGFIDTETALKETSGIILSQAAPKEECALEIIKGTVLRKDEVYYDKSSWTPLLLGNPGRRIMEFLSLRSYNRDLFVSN
Readout name: pIC50
Bear in mind: pIC50 is minus log10 of a mol/L concentration; give just that figure.

Q) What pIC50 appears in the records for this compound with 11-beta-hydroxysteroid dehydrogenase 1 (Rattus norvegicus, UniProt P16232)? CC1(C)[C@@H](O)CC[C@]2(C)[C@H]3C(=O)C=C4[C@@H]5C[C@@](C)(C(=O)O)CC[C@]5(C)CC[C@@]4(C)[C@]3(C)CC[C@@H]12 (stereo in doubt; 1)
A) 7.05

###

- System: UniProt P28845
- Assay details: Inhibition of human recombinant 11beta-HSD1 expressed in HEK293 cells assessed as conversion of [1,2-3H]cortisone to cortisol at 1 uM after 10 mins by scintillation counting
- Type: cell-based
Readout name: inhibition (%)

Check out these entries, answers already filled in.
CC1(C)[C@@H](OC(=O)CCC(=O)O)CC[C@]2(C)[C@H]3C(=O)C=C4[C@@H]5C[C@@](C)(C(=O)O)CC[C@]5(C)CC[C@@]4(C)[C@]3(C)CC[C@@H]12
87.7
CC1(C)[C@@H](O)CC[C@]2(C)[C@H]3C(=O)C=C4[C@@H]5C[C@@](C)(C(=O)N6CCC(C(=O)O)CC6)CC[C@]5(C)CC[C@@]4(C)[C@]3(C)CC[C@@H]12
19.5

(1) CC1(C)[C@@H](O)CC[C@]2(C)[C@H]3C(=O)C=C4[C@@H]5C[C@@](C)(C(=O)NCCO)CC[C@]5(C)CC[C@@]4(C)[C@]3(C)CC[C@@H]12
(2) CC1(C)[C@H](O)CC[C@]2(C)[C@H]3C(=O)C=C4[C@@H]5C[C@@](C)(C(=O)O)CC[C@]5(C)CC[C@@]4(C)[C@]3(C)CC[C@@H]12
Q) # min-compare on inhibition between 1 and 2 Output the label that corresponds to your choice.
A) 1
